- tested on: T1, CEACAM3 on transfected HeLa cells (human, UniProt P40198 35-252)
- T1 construct: whole, on cells; also called HeLa-CEACAM3; HeLa C3
- T1 sequence (looked up): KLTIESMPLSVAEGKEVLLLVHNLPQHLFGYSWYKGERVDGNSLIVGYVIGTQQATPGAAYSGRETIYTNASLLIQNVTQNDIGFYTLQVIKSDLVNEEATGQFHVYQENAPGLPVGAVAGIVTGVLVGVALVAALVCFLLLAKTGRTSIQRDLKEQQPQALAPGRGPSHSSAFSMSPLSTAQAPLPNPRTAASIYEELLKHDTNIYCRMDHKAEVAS
- procedure details: flow cytometry, HeLa-CEACAM3 transfectants, % staining, stacked bars
reported metric: binding result

{"binder": "9B3_9E5/CP08E05 (antibody, IgG4, V domains shown, IgG4 (S241P), kappa) VH: EVQLLESGGGLVQPGGSLRLSCAASGFTFNAHAISWVRQAPGKGLEWVATISSGGTYTYYPDSVKGRFTISRDNSKNTLYLQMNSLKAEDTAMYYCARHGFDYDAAWFAYWGQGTLVTVSS VL: EIVLTQSPATLSLSPGERATLSCRANSAVSYMYWYQQKPGQAPRPWIYLTSNRATGVPARFSGSGSGTDYTLTISSLEPEDFAVYYCQQWTTNPPTFGQGTKLEIK", "reported metric": "binding result", "result": "binds"}
{"binder": "CP09C02/CP08E05 (antibody, IgG4, V domains shown, IgG4 (S241P), kappa) VH: EVQLLESGGGLVQPGGSLRLSCAASEFTFSDHAMSWVRQAPGKGLEWVATISSGGTYTYYPDSVKGRFTISRDNSKNTLYLQMNSLKAEDTAMYYCARHGFDYDAAWFAYWGQGTLVTVSS VL: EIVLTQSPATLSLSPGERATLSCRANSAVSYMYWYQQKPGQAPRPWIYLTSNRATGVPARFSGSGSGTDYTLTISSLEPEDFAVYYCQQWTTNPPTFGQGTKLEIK", "reported metric": "binding result", "result": "binds"}

The measured values listed here are drawn from patent US20250074980A1.
